// data source = paper PMC12692036

# Test system: α-glucosidase
# test: Affinity ultrafiltration MTAUF-UPLC-MS/MS of DE with α-glucosidase
# Assay type: binding, Saccharomyces cerevisiae
# setupConditions: peak area with active / inactivated enzyme; DE 5.0 mg·mL^−1
measureName: relative binding affinity (RBA) toward α-glucosidase

compound: O=c1cc(-c2ccc(O)c(O)c2)oc2cc(O)cc(O)c12 [Compound 7, luteolin]
measuredValue: less than 1
--
compound: O=C(/C=C/c1ccc(O)c(O)c1)O[C@H]1[C@H](O)C[C@](O)(C(=O)O)C[C@H]1OC(=O)/C=C/c1ccc(O)c(O)c1 [Compound 2, isochlorogenic acid C]
measuredValue: less than 1
--
compound: COc1ccc(C=CC(=O)O)cc1OC [Compound 6, 3,4-dimethoxy cinnamic acid]
measuredValue: less than 1
